Hello, the source for this data is ChEMBL document CHEMBL1133869, in case you need it.

Known Ki of a selection of molecules
assayed_target: Peroxisome proliferator-activated receptor gamma (Homo sapiens, UniProt P37231)
Sequence (P37231 whole entry): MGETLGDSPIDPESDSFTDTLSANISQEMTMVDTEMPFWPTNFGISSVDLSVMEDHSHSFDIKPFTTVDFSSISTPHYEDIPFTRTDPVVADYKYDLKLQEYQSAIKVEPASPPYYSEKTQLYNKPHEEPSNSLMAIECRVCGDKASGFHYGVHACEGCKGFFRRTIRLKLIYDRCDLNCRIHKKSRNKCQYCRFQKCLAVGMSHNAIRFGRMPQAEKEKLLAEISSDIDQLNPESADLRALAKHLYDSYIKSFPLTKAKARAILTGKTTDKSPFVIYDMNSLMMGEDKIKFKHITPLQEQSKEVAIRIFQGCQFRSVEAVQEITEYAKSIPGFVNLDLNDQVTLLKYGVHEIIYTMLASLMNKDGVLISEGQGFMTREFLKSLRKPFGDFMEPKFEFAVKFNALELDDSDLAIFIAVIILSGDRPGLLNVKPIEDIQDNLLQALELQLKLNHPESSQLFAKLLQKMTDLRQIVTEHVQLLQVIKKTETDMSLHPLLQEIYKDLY
Give your result in nM as a bare value.

As a guide, the following entries are already answered.
chemical_structure	Ki / nM
Cc1oc(-c2ccccc2)nc1CCOc1ccc(C[C@@H](C(=O)O)N2CCCCC2)cc1	480
Cc1oc(-c2ccccc2)nc1CCOc1ccc(C[C@H](NS(C)(=O)=O)C(=O)O)cc1	620

Challenge: Value lookup for Ki; key = Cc1oc(-c2ccccc2)nc1CCOc1ccc(C[C@@H](C(=O)O)N2CCCC2)cc1
Response given: 360

Challenge: What about this molecule? Cc1oc(-c2ccccc2)nc1CCOc1ccc(C[C@H](Nc2ncccn2)C(=O)O)cc1
Response given: 280

Challenge: What do you get for CCCN[C@@H](Cc1ccc(OCCc2nc(-c3ccccc3)oc2C)cc1)C(=O)O ?
Response given: 52

Challenge: Entry CN[C@@H](Cc1ccc(OCCc2nc(-c3ccccc3)oc2C)cc1)C(=O)O please
Response given: 2100

Challenge: Consider next the molecule Cc1oc(-c2ccccc2)nc1CCOc1ccc(C[C@@H](C(=O)O)n2c(C)ccc2C)cc1 in the same way.
Response given: 980

Challenge: Also CC(=O)N[C@@H](Cc1ccc(OCCc2nc(-c3ccccc3)oc2C)cc1)C(=O)O , if possible.
Response given: 2600

Challenge: Again, but for Cc1oc(-c2ccccc2)nc1CCOc1ccc(C[C@@H](C(=O)O)N2CCOCC2)cc1
Response given: 158

Challenge: // query: Cc1oc(-c2ccccc2)nc1CCOc1ccc(C[C@@H](C(=O)O)N(C)C)cc1
Response given: 850
